target: Protein cereblon/Cyclin-dependent kinase 9 (Homo sapiens, UniProt P50750+Q96SW2); experiment: Protac activity against E3 ubiquitin ligase/CDK9 in human MCF7 cells assessed as induction of CDK9 protein degradation
Sequence (P50750 whole entry): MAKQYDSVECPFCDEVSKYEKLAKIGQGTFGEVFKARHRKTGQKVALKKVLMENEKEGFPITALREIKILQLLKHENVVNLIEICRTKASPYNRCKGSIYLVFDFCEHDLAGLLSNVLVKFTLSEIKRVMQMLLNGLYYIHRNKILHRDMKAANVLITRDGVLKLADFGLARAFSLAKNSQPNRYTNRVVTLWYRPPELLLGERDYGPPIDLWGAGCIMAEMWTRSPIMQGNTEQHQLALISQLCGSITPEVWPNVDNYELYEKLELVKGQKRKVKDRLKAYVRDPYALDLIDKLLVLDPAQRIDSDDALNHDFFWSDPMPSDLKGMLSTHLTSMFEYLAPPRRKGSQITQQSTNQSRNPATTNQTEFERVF
Sequence (Q96SW2 whole entry): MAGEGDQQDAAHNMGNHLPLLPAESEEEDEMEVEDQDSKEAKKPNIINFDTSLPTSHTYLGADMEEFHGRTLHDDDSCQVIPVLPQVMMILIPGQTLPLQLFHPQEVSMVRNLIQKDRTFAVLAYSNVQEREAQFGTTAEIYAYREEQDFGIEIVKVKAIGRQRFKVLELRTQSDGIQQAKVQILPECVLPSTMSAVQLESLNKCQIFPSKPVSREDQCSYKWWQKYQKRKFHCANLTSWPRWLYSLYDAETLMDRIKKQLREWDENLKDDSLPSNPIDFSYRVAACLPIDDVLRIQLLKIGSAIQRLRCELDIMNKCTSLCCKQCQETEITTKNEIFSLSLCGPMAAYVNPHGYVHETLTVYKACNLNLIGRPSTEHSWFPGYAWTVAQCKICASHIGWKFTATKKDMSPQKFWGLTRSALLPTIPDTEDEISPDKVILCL
pIC50: −log10 of the molar value.

{"COMPOUND": "O=C1CCC(N2C(=O)c3cccc(NC(=O)CCCCCCCn4cc(COc5c(O)cc(O)c6c(=O)cc(-c7ccccc7)oc56)nn4)c3C2=O)C(=O)N1 (stereo unspecified)", "TARGET_OR_SYSTEM": "Protein cereblon/Cyclin-dependent kinase 9 (Homo sapiens, UniProt P50750+Q96SW2)", "pIC50": 6.28}
